- target.entity: HRgpA-6H (Porphyromonas gingivalis) (UniProt P28784)
- measurement.protocol: ELISA on coated HRgpA-6H
List of Ratio OD(Variant)/OD(WT) values.
readout: Ratio OD(Variant)/OD(WT)

KB001 mouse Fab FASEBA VH K64H (Fab, V domains shown) VH: EVQLKQSGPGLVAPSQSLSITCTVSGFSLSIYSVHWVRQPPGKGLEWLGMIWGGGSSDYNSALHSRLSISKDNSKSQVFLKMNSLQTDDTAMYYCARNGNFYAMDYWGQGTSVTVSS VL: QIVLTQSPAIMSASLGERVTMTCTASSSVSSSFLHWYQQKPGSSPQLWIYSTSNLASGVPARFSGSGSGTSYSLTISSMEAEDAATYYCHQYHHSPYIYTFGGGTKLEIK    0.909
KB001 mouse Fab FASEBA VH G55D (Fab, V domains shown) VH: EVQLKQSGPGLVAPSQSLSITCTVSGFSLSIYSVHWVRQPPGKGLEWLGMIWGGDSSDYNSALKSRLSISKDNSKSQVFLKMNSLQTDDTAMYYCARNGNFYAMDYWGQGTSVTVSS VL: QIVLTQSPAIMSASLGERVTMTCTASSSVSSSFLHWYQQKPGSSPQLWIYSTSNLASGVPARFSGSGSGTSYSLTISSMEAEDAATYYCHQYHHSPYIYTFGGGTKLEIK    0.866
